protocol: pH of amino acids in 1% carboxymethylcellulose solution
Format: physicochemical
conditionLabel: 150 mg/ml in 1% carboxymethylcellulose solution
valueKind: Amino acid pH
Output spec: single numeric token, no unit.

Data request, read-out Amino acid pH, for NC(=O)CC[C@@H](N)C(=O)O
5.51

Data request, read-out Amino acid pH, for N[C@@H](CS)C(=O)O
5.81

Data request, read-out Amino acid pH, for NCCCC[C@H](N)C(=O)O
10.26

Data request, read-out Amino acid pH, for NC(Cc1c[nH]c2ccccc12)C(=O)O (racemic)
8.27

Data request, read-out Amino acid pH, for C[C@@H](O)[C@H](N)C(=O)O
6.26

Data request, read-out Amino acid pH, for C[C@H](N)C(=O)O
6.45

Data request, read-out Amino acid pH, for NCC(=O)O
6.12

Data request, read-out Amino acid pH, for O=C(O)[C@@H]1C[C@@H](O)CN1 [L-hydroxyproline]
7.86

Next:
Data request, read-out Amino acid pH, for N=C(N)NCCC[C@H](N)C(=O)O
11.00

Data request, read-out Amino acid pH, for CC(C)[C@H](N)C(=O)O
6.80

Data request, read-out Amino acid pH, for O=C(O)[C@@H]1CCCN1
6.32

Data request, read-out Amino acid pH, for N[C@@H](CO)C(=O)O
6.11

Data request, read-out Amino acid pH, for N[C@@H](Cc1ccccc1)C(=O)O
6.26

---

protocol: pH of amino acids in 1% carboxymethylcellulose solution
Type: physicochemical
conditionLabel: 150 mg/ml in 1% carboxymethylcellulose solution
valueKind: Amino acid pH
Output spec: single numeric token, no unit.

Data request, read-out Amino acid pH, for NC(=O)CC[C@H](N)C(=O)O [L-glutamine]
6.65

Data request, read-out Amino acid pH, for CC[C@H](C)[C@H](N)C(=O)O [L-isoleucine]
6.60

Data request, read-out Amino acid pH, for N[C@@H](CC(=O)O)C(=O)O [L-aspartic acid]
3.33

Next:
Data request, read-out Amino acid pH, for N[C@@H](Cc1c[nH]cn1)C(=O)O [L-histidine]
7.86

Data request, read-out Amino acid pH, for CSCC[C@H](N)C(=O)O [L-methionine]
6.09

---

protocol: pH of amino acids in 1% carboxymethylcellulose solution
Type: physicochemical
conditionLabel: 150 mg/ml in 1% carboxymethylcellulose solution
valueKind: Amino acid pH
Output spec: single numeric token, no unit.

Before answering, review these 3 worked examples.
Data request, read-out Amino acid pH, for N[C@@H](CSSC[C@H](N)C(=O)O)C(=O)O
6.62

Data request, read-out Amino acid pH, for CC(C)C[C@H](N)C(=O)O
7.15

Data request, read-out Amino acid pH, for NC(=O)C[C@H](N)C(=O)O
5.80

Attention now turns to another entry.
Data request, read-out Amino acid pH, for N[C@@H](CCC(=O)O)C(=O)O
3.45
